Where do the numbers come from? From the NIST ThermoML archive (doi:10.1021/je1000582).

- Protocol Details: activity coefficient (dimensionless); of the first substance listed, at infinite dilution; xn = mol fraction of the nth substance listed
- Reported Conditions: 328.15 K; 101 kPa; Liquid; Chromatography; x1 = 0
Recorded Endpoint: activity coefficient

(P) C1CCCCC1 [cyclohexane] + CCCC[n+]1cccc(C)c1.O=S(=O)([O-])C(F)(F)F
(Q) C#CCCCC [1-hexyne] + CCCC[n+]1cccc(C)c1.O=S(=O)([O-])C(F)(F)F
Which record shows the lower activity coefficient: the first, P , or the second, Q ? Return value: the label identifying the chosen record.
Q
(Q: 3.03, P: 11.7)

(1) CO [methanol] + CCCC[n+]1cccc(C)c1.O=S(=O)([O-])C(F)(F)F
(2) C1CCCCCCC1 [cyclooctane] + CCCC[n+]1cccc(C)c1.O=S(=O)([O-])C(F)(F)F
// compare measured activity coefficient, left 1 , right 2 , return larger Which one? Tell me its label.
2

(a) CCCO [propan-1-ol] + CCCC[n+]1cccc(C)c1.O=S(=O)([O-])C(F)(F)F
(b) CCCCCCCCC [nonane] + CCCC[n+]1cccc(C)c1.O=S(=O)([O-])C(F)(F)F
Hi team, can someone confirm which has the larger activity coefficient: a or b ? Thanks. Identify your pick by its label.
b
